tgt: PI3Kδ (Homo sapiens (Human))
Sequence (O00329 whole entry): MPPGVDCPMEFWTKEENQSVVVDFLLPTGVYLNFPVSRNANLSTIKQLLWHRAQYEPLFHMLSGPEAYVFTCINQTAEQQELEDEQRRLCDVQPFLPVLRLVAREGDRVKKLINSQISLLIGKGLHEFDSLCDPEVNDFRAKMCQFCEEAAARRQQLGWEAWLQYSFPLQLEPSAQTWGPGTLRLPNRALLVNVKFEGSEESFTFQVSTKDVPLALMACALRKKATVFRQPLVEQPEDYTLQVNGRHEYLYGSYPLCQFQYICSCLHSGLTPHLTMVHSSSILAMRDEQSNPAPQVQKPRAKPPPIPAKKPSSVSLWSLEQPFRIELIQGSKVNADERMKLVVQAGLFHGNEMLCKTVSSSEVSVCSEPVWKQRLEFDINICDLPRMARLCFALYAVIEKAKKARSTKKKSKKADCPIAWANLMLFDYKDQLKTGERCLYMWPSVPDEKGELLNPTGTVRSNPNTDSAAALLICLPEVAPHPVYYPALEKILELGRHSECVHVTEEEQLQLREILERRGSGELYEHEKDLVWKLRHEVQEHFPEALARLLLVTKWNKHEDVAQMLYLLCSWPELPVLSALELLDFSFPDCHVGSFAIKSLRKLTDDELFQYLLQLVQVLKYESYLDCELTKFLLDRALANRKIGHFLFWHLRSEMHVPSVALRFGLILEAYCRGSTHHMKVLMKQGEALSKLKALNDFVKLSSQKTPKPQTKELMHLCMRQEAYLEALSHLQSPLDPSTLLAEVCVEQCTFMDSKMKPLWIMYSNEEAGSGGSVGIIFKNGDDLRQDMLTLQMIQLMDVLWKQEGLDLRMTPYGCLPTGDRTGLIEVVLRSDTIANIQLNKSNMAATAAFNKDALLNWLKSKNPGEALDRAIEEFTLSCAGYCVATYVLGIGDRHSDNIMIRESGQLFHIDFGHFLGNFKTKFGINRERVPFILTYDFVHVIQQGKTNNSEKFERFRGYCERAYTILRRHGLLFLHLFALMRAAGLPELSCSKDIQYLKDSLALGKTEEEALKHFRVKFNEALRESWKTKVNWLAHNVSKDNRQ
Sequence (P27986 whole entry partner): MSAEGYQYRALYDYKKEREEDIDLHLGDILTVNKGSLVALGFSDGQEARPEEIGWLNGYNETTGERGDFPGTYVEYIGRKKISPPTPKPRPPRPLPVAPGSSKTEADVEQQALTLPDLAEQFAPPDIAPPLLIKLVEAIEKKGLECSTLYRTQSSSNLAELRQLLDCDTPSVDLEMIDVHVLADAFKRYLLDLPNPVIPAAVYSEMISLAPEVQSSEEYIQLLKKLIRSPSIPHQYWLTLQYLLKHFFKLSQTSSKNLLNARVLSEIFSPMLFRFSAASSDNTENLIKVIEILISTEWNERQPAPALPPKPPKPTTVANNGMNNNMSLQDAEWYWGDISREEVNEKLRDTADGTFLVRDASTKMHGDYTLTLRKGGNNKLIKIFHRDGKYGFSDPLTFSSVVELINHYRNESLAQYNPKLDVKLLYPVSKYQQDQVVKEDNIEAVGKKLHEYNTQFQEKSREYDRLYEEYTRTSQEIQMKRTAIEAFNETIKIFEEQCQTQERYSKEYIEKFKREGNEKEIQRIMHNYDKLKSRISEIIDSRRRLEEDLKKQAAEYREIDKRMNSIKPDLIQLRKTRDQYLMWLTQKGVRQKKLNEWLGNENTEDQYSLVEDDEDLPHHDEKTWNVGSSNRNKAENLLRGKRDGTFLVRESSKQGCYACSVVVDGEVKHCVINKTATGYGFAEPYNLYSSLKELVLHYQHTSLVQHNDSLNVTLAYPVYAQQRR
experiment-summary: Biochemical inhibition of PI3K delta (ADP-Glo lipid kinase assay, Example 901)
recorded-conditions: geometric mean of minimum three experiments unless footnoted
readout-label: Ki (nM)
Answers are plain numbers, in nM.

The following compounds have reported results that may help.
                                   compound  unit_of_measurement  recorded_measurement
0  NC(=O)[C@@H](Nc1ccc2c(c1)OCCn1cc(N3C(=O)OC[C@H]3CF)nc1-2)C1CC1 [Compound 105]                   nM                  30.3
1  CC(C)n1ncnc1-c1cn2c(n1)-c1ccc(O[C@@H](C)C(N)=O)cc1OCC2 [Compound 436]                   nM                  6.94
2  C[C@H](Nc1ccc2c(c1)OCCn1cc(-c3ncnn3CC(F)(F)F)nc1-2)C(N)=O [Compound 529, reference compound]                   nM                  1.05
3  C[C@@H]1COC(=O)N1c1cn2c(n1)-c1ccc(N[C@H](C(N)=O)C3CCC3)cc1OCC2 [Compound 102]                   nM                   286

Let us move to another entry and its Ki.
Lookup: Tell me its Ki given CC[C@H](Nc1ccc2c(c1)OCCn1cc(N3C(=O)OC[C@H]3C(F)F)nc1-2)C(N)=O [Compound 107] as the entry.
Found: 17.5
